# Test system: Pseudomonas BRK 12-4-4
# Measurement Notes: in vitro antibacterial activity, minimal inhibitory concentration
# Format: cell-based
# Experimental Conditions: BRK1244; Pseudomonas BRK 12-4-4, in vitro
The entries below are paired with their reported MIC.
Give just the numeric value; µg/mL need not be written.

Example entries begin here.
CC(=O)NC(C)C(=O)Nc1ccc(-c2ncc(C(=O)N[C@@H](C(=O)N[C@@H]3C(=O)N4C(C(=O)O)=C(COC(C)=O)CS[C@H]34)c3ccc(O)cc3)c(O)n2)cc1 (mixture of isomers) [Example 9]: 3.1
CC(=O)NCCCC(=O)Nc1ccc(-c2ncc(C(=O)N[C@@H](C(=O)N[C@@H]3C(=O)N4C(C(=O)O)=C(COC(C)=O)CS[C@H]34)c3ccccc3)c(O)n2)cc1 [Example 16]: 12.5

Let's switch to this compound now.
Input: For Pseudomonas BRK 12-4-4, provide MIC of CC(=O)N[C@H](C)C(=O)Nc1ccc(-c2ncc(C(=O)N[C@@H](C(=O)NC3C(=O)N4C(C(=O)O)=C(CSc5nnnn5CC(=O)O)CSC34)c3ccccc3)c(O)n2)cc1 (stereo partly drawn) [Example 34] please.
Output: 12.5
